Quick reference: TGI of the listed items.
System: SN12K1 renal
Assay: NCI tumour cell line growth inhibition, 48 h

Previously resolved entries follow.
COMPOUND: CN(C)CCNCc1c2ccccc2c(CNCCN(C)C)c2ccccc12
TGI: 67.6 µM

COMPOUND: C[C@@]12CC[C@H]3[C@@H]4CCC(=O)N[C@@]4(C)CC[C@@H]3[C@@]1(C)CC[C@H](OC(=O)Cc1ccc(N(CCCl)CCCl)cc1)C2
TGI: 32.5 µM

COMPOUND: C#CCN1CCN(C(=S)N/N=C(\C)c2ccccn2)CC1
TGI: 2.22 µM

COMPOUND: [Cl-].[Rh+3].c1ccc(-c2ccnc3c2ccc2c(-c4ccccc4)ccnc23)cc1.c1ccc(-c2ccnc3c2ccc2c(-c4ccccc4)ccnc23)cc1.c1ccc(-c2ccnc3c2ccc2c(-c4ccccc4)ccnc23)cc1
TGI: > 87.2 µM

Turning to the following compound.
Task: Requested field: TGI. Item: NC(=O)c1[nH]nc(C2OC(CO)C(O)C2O)c1O (stereo not given)
Result: 663 µM

----------
Test system: HT29 colon
Assay: NCI tumour cell line growth inhibition, 48 h; in the data active = GI50 below about 0.43 µM; inactive = the rest
Please state which outcome applies, choosing from active, inactive

These solved cases illustrate the format of a correct answer.
COMPOUND: O=C(Oc1ccc([N+](=O)[O-])cc1)N1CCN(Cc2cccc(Oc3ccccc3)c2)CC1
LABEL_VALUE: inactive

COMPOUND: Cc1ccc(N=C2CSc3nnc(-c4csc5c4CCCC5)n3N2)cc1
LABEL_VALUE: active

COMPOUND: NC1=NC(c2ccccc2)N=C(Nc2ccccc2)N1 (configuration not stated)
LABEL_VALUE: inactive

COMPOUND: COc1cc2c3c(n(CCCN)c(=O)c2cc1OC)-c1ccc(F)cc1C3=O
LABEL_VALUE: inactive

COMPOUND: COc1cc2c3c(n(CCCN4CCN(C)CC4)c(=O)c2cc1OC)-c1cc2c(cc1C3=O)OCO2
LABEL_VALUE: inactive

COMPOUND: O=C1/C(=C/c2ccccc2)SC(=Nc2ccccc2)N1Nc1ccccc1
LABEL_VALUE: inactive

Task: Query: recorded result category for O=S(=O)(NC(=S)Nc1ccccc1)c1ccc(N2N=C3c4ccccc4CC3C2c2cccs2)cc1 (configuration not stated) in this test
Result: inactive

----------
Tested on: IGROV1 ovarian
Experiment: NCI tumour cell line growth inhibition, 48 h
Listing: TGI of selected compounds
Return type: number; implicit unit µM.

Check out these entries, answers already filled in.
COMPOUND: Cc1cccc2sc(NC(=O)c3cc([N+](=O)[O-])ccc3Cl)nc12
UNIT_OF_MEASURE: µM
TGI: 10.7
//
COMPOUND: COc1ccc(-c2cnc(-c3ccc(F)cc3)[nH]2)cc1
UNIT_OF_MEASURE: µM
TGI: 12.7
//
COMPOUND: O=C1C(Cl)=C(Nc2ccc3cn[nH]c3c2)C(=O)c2ccccc21
UNIT_OF_MEASURE: µM
TGI: 2.02

In the following, a different compound is considered.
Task: Fill blank: measured TGI of the compound C[n+]1c2ccccc2c(CNC(CCC(N)=O)C(=O)O)c2ccccc21 (configuration not stated) is ____.
Result: 13.4

----------
Test system: NCI-H522 lung
Assay: NCI tumour cell line growth inhibition, 48 h
RESULT_TYPE: TGI (µM)
Answer in µM, number only, no unit symbol.

MOLECULE: Cc1nc2c(nc1C)-c1c(c3c(n1Cc1ccccc1)C(=O)CCC3)C(=O)C2=O
NUMERIC_RESULT: 7.28

Please turn your attention to the following entry.
Task: Can you look up the measured TGI of C/C=C(\C)C(=O)O[C@@H]1C(O)[C@H]2OC(COC(=O)CCC(=O)CCCCCC[C@H](CCCCC)O[C@@H]3OC(C)[C@H](OC(C)=O)C(O)[C@H]3O2)[C@H]1OC(=O)/C=C/c1ccccc1 (some centres undefined) for me?
Result: 2.29

----------
Catalogue of TGI values
Test system: SW-620 colon
Experiment: NCI tumour cell line growth inhibition, 48 h

Below are worked cases with known answers.
COMPOUND: C=C1C(=O)O[C@H]2[C@H]1CC/C(COC(=O)C(=O)c1c[nH]c3ccc(OC)cc13)=C\CC[C@@]1(C)O[C@@H]21
TARGET: SW-620 colon
TGI: 16.2 µM

COMPOUND: C=C(C)CCC1CCCCC(CN(C)C)C1=O (stereo not given)
TARGET: SW-620 colon
TGI: > 100 µM

COMPOUND: Cc1cccc2sc(NC(=O)c3cc([N+](=O)[O-])ccc3Cl)nc12
TARGET: SW-620 colon
TGI: 6.35 µM

COMPOUND: COc1ccc2cc(C(=O)/C=C/c3cccc(Cl)c3Cl)ccc2c1
TARGET: SW-620 colon
TGI: > 100 µM

Task: What value of TGI has been recorded for this entry: COC(=O)C1=NN2c3ccccc3C(=O)OCCC2C1 (stereo not given)
Result: > 100 µM

----------
System: CAKI-1 renal
Experiment: NCI tumour cell line growth inhibition, 48 h; in the data active = GI50 below about 0.43 µM; inactive = the rest
Write down the outcome that applies. Available outcomes: 1 for active, 0 for inactive

Some entries whose results are on file:
COMPOUND: NC1=NC(c2ccccc2)N=C(Nc2ccccc2)N1 (stereo not drawn)
LABEL_VALUE: 0

COMPOUND: CN1CCN(CC(=O)Nc2ccc3ncnc(Nc4ccc(Oc5cccc(C(F)(F)F)c5)c(Cl)c4)c3c2)CC1
LABEL_VALUE: 0

COMPOUND: O=C([O-])c1ccc2c(c1)-c1nc-2nc2[n-]c(nc3nc(nc4[n-]c(n1)c1ccc(C(=O)[O-])cc41)-c1cc(C(=O)[O-])ccc1-3)c1ccc(C(=O)[O-])cc21.[Fe+2]
LABEL_VALUE: 0

COMPOUND: CC(=O)OCC1OC(OC2CC3C(C)(C)C(OC(C)=O)CC[C@]3(C)C3CCC45CC4(CC[C@H]5C(C)CC(O)C4OC4(C)C)[C@]23C)C(O)C(O)C1O (stereo partly drawn)
LABEL_VALUE: 0

COMPOUND: COc1cc2c3c(n(CCCN4CCN(C)CC4)c(=O)c2cc1OC)-c1cc2c(cc1C3=O)OCO2
LABEL_VALUE: 0

Task: Per the assay record, what outcome was assigned to O=C1c2cccnc2-c2nc(/C=C/c3ccccc3)cc3c2c1nc1ccccc13 ?
Result: 0

Task: Field: outcome | Entry: O=C1C(Cl)=C(Nc2ccc3cn[nH]c3c2)C(=O)c2ccccc21
Result: 0

Task: Entry O=C(Oc1ccc([N+](=O)[O-])cc1)N1CCN(Cc2cccc(Oc3ccccc3)c2)CC1 : call = ?
Result: 0

Task: Hi team, can someone confirm the assay call for [Cl-].[Rh+3].c1ccc(-c2ccnc3c2ccc2c(-c4ccccc4)ccnc23)cc1.c1ccc(-c2ccnc3c2ccc2c(-c4ccccc4)ccnc23)cc1.c1ccc(-c2ccnc3c2ccc2c(-c4ccccc4)ccnc23)cc1 ?
Result: 0

Task: Entry N#C/C(=C/C=C(\Cl)c1ccc(Cl)cc1)C(N)=O : call = ?
Result: 0

Task: What did this assay record as the result for O=c1cccc(C#Cc2ccccc2)o1 ?
Result: 0

Task: # outcome recorded in this test, key = CN(C)c1ccc(/C=C/c2sc3ccc4ccccc4c3[n+]2C)cc1
Result: 1

----------
Recorded measurements of TGI, one per entry
Tested on: MDA-MB-435
Assay: NCI tumour cell line growth inhibition, 48 h

Consider the reported TGI for these compounds:
COMPOUND: CCc1cccc(CC)c1NC(=S)NC(=O)c1ccc(Br)cc1
RESULT: 83.5 µM
//
COMPOUND: C=C1C(=O)O[C@H]2[C@H]1CC/C(COC(=O)C(=O)c1c[nH]c3ccc(OC)cc13)=C\CC[C@@]1(C)O[C@@H]21
RESULT: 10.8 µM
//
COMPOUND: Cc1cccc2sc(NC(=O)c3cc([N+](=O)[O-])ccc3Cl)nc12
RESULT: 12.6 µM
//
COMPOUND: COc1cc(/C=C/C(=O)c2cc(F)c(Cl)cc2Cl)cc(OC)c1OC
RESULT: > 100 µM
//
COMPOUND: O=C(O)CCC1COc2ccccc2O1 (stereo unspecified)
RESULT: > 10 µM

Task: Using the record for O=C(O)c1c(CC(Cc2ccc3c(c2)CCCC3)C(=O)O)ccc2c1CCCC2 (stereo unspecified) , report its TGI.
Result: > 100 µM

Task: Quick check: TGI of N#CC1C(=N)Cc2ccccc2-c2ccccc21 (stereo unspecified) ?
Result: 3.57 µM

Task: Report TGI for O=C1c2cccnc2-c2nc(/C=C/c3ccccc3)cc3c2c1nc1ccccc13 please.
Result: 3.37 µM

Task: May I ask what TGI has been recorded for Cc1ccc(C(=O)CC(Cl)=C(Cl)Cl)cc1 ?
Result: > 100 µM

Task: # lookup: TGI of COC(=O)[C@]12CC[C@@H](C)[C@H](C)[C@@H]1C1=CC[C@@H]3[C@@]4(C)C(C=O)=C[C@@](C)(COC(C)=O)[C@@H]4[C@H](O)C[C@@]3(C)[C@]1(C)CC2
Result: 5.04 µM

Task: Find the recorded TGI belonging to CCOC(=O)c1c(C)n(Cc2ccccc2)c2c1cc(O)c1[nH]c3c(c12)CCCC3 and report it.
Result: 24.4 µM
